Listed next: entries and their corresponding z-score of subpopulation abundance.
test system: Saccharomyces cerevisiae BY4741 SeMeCo community; experiment: z-score of subpopulation abundance vs DMSO median, subpopulation auxotrophic for LU; higher = larger share of this subpopulation than in DMSO controls; settings: 10 µM; 24 h; SM minimal medium; subpopulation (auxotrophy): LU
Counter-ions that a name gives are not always drawn.
Answer with a bare number; do not write a unit.

For orientation, consider the following solved cases.
compound="COc1ccnc(C[S+]([O-])c2nc3cc(OC(F)F)ccc3[nH]2)c1OC (stereo not given) [Pantoprazole]" assayed_system="Saccharomyces cerevisiae BY4741 SeMeCo community" recorded_metric="z-score of subpopulation abundance" observed_result=0.17
compound=NC[C@H]1O[C@H](O[C@H]2[C@H](O)[C@@H](O[C@H]3O[C@H](CO)[C@@H](O)[C@H](N)[C@H]3O)[C@H](N)C[C@@H]2N)[C@H](N)C[C@@H]1O assayed_system="Saccharomyces cerevisiae BY4741 SeMeCo community" recorded_metric="z-score of subpopulation abundance" observed_result=-0.02
compound="C[N+]1(C)[C@@H]2CC[C@H]1C[C@@H](OC(=O)C(O)c1ccccc1)C2 (stereo not given in full) [Homatropine Methylbromide]" assayed_system="Saccharomyces cerevisiae BY4741 SeMeCo community" recorded_metric="z-score of subpopulation abundance" observed_result=0.06
compound=CCN1CCN(C(=O)N[C@@H](C(=O)N[C@@H]2C(=O)N3C(C(=O)O)=C(CSc4nnnn4C)CS[C@H]23)c2ccc(O)cc2)C(=O)C1=O assayed_system="Saccharomyces cerevisiae BY4741 SeMeCo community" recorded_metric="z-score of subpopulation abundance" observed_result=-0.39
compound=C[C@@H]1C/C=C/C=C/C=C/C=C/[C@H](O[C@@H]2O[C@H](C)[C@@H](O)[C@H](N)[C@@H]2O)C[C@@H]2O[C@](O)(C[C@@H](O)C[C@H]3O[C@@H]3/C=C/C(=O)O1)C[C@H](O)[C@H]2C(=O)O assayed_system="Saccharomyces cerevisiae BY4741 SeMeCo community" recorded_metric="z-score of subpopulation abundance" observed_result=8.63
compound=NC(=O)Cc1cccc(C(=O)c2ccccc2)c1N assayed_system="Saccharomyces cerevisiae BY4741 SeMeCo community" recorded_metric="z-score of subpopulation abundance" observed_result=-0.55
compound="CNC1CCCN(c2c(F)cc3c(=O)c(C(=O)O)cn(C4CC4)c3c2OC)C1 (stereo not given)" assayed_system="Saccharomyces cerevisiae BY4741 SeMeCo community" recorded_metric="z-score of subpopulation abundance" observed_result=-0.04
compound="CCC[C@@H]1C[C@@H](C(=O)N[C@@H]([C@H]2O[C@H](SC)[C@H](O)[C@@H](O)[C@H]2O)[C@@H](C)O)N(C)C1 [Lincomycin HCl]" assayed_system="Saccharomyces cerevisiae BY4741 SeMeCo community" recorded_metric="z-score of subpopulation abundance" observed_result=-0.63
compound="C=C1c2cccc(O)c2C(O)=C2C(=O)[C@]3(O)C(O)=C(C(N)=O)C(=O)[C@@H](N(C)C)[C@@H]3[C@@H](O)[C@H]12 [Methacycline HCl]" assayed_system="Saccharomyces cerevisiae BY4741 SeMeCo community" recorded_metric="z-score of subpopulation abundance" observed_result=-0.95
compound=C[C@H]1O[C@@H](O[C@H]2[C@@H](O)C[C@H](O[C@H]3[C@@H](O)C[C@H](O[C@H]4CC[C@@]5(C)[C@H](CC[C@@H]6[C@@H]5C[C@@H](O)[C@]5(C)[C@@H](C7=CC(=O)OC7)CC[C@]65O)C4)O[C@@H]3C)O[C@@H]2C)C[C@H](O)[C@@H]1O assayed_system="Saccharomyces cerevisiae BY4741 SeMeCo community" recorded_metric="z-score of subpopulation abundance" observed_result=-0.6

(Q) Return z-score of subpopulation abundance for the following compound: COc1ncnc(NS(=O)(=O)c2ccc(N)cc2)c1OC
(A) 0.85

(Q) Return z-score of subpopulation abundance for the following compound: CCCCOc1cc(C(=O)NCCN(CC)CC)c2ccccc2n1 [Dibucaine HCl]
(A) -0.21

(Q) Return z-score of subpopulation abundance for the following compound: COC(=O)C1=C(C)NC(C)=C(C(=O)OCCN2CCN(C(c3ccccc3)c3ccccc3)CC2)C1c1cccc([N+](=O)[O-])c1 (stereo not given) [Manidipine 2HCl]
(A) -0.77

(Q) Return z-score of subpopulation abundance for the following compound: CC1=C(CC(=O)O)c2cc(F)ccc2/C1=C\c1ccc([S+](C)[O-])cc1 (stereo not given)
(A) -0.59

(Q) Return z-score of subpopulation abundance for the following compound: Oc1cccc(O)c1
(A) -1.33
